Assay: Quantitative High-Throughput drug screen in 47 multiple myeloma cell lines against the NCATS MIPE library collection: KMS21BM_JCRB cell viability assay (AID 1918974); also: potency is read from the fitted curve at half-maximal effect
Settings: ATP luminescence, 48 h
Results filed as inconclusive are left out. Calls of active or inactive are those of the source. Calls follow the shape of the dose curve; as a rule, active = well fitted cell-killing curve with a large enough effect; inconclusive = small, poorly fitted or top-dose-only effect, or effect the other way; inactive = no such curve, though single readings can be large or run the other way.
readout_label: Potency

Exercise: State the recorded Potency for this entry: `O=c1ccn([C@@H]2O[C@H](CO)[C@H](O)[C@@H]2F)c(=O)[nH]1`
Solution: inactive

Exercise: State the recorded Potency for this entry: `CN[C@H]1[C@@H](O)[C@@H]2O[C@@H]3O[C@H](C)CC(=O)[C@]3(O)O[C@@H]2[C@@H](NC)[C@H]1O`
Solution: 418 nM (active)

Exercise: State the recorded Potency for this entry: `CC(C=CC(=O)NO)=C[C@@H](C)C(=O)c1ccc(N(C)C)cc1`
Solution: 166 nM (active)

Exercise: State the recorded Potency for this entry: `CC[C@H]1OC(=O)[C@H](C)[C@@H](O[C@H]2C[C@@](C)(OC)[C@@H](O)[C@H](C)O2)[C@H](C)[C@@H](O[C@@H]2O[C@@H](C)C[C@H](N(C)C)[C@@H]2O)[C@](C)(O)C[C@@H](C)C(=O)[C@H](C)[C@@H](O)[C@]1(C)O`
Solution: inactive

***
Exercise: State the recorded Potency for this entry: CC(O)(C#Cc1ccc2c(c1)N(c1nc(N)ncc1Cl)CC2)c1nccs1 (configuration not stated)
Solution: 332 nM (active)

Exercise: State the recorded Potency for this entry: `CON=C(C(=O)N[C@@H]1C(=O)N2C(C(=O)O)=C(Cn3ccc(=N)n3CCO)CS[C@H]12)c1csc(N)n1`
Solution: inactive

Exercise: State the recorded Potency for this entry: `Cn1c(Nc2ccc(C(F)(F)F)cc2)nc2cc(Oc3ccnc(-c4ncc(C(F)(F)F)[nH]4)c3)ccc21`
Solution: 5900 nM (active)

Recorded values, source PubChem BioAssay (NCATS).
